Please respond with reported CC50 at 5 days for every item in the list.
experiment: Test B: Cytotoxicity assay; type: cell-based; details: human, uninfected MT-4 cells, same protocol as Test A, CellTiter-Glo
One number for each entry, in µM.

A selection of reference data follows.
| compound | experimentalValue |
| --- | --- |
| O=C(Cc1c[nH]c2ccc(F)cc12)N[C@@H](Cc1cc(F)cc(F)c1)c1nocc1-c1ccc(Cl)cc1 [Compound 25I] | 9.89 |
| COc1ccccc1Cn1ccnc1[C@H](Cc1ccccc1)NC(=O)Cc1c[nH]c2ccc(O)cc12 [Compound 3C] | 37.1 |
| O=C(Cn1nc(C(F)(F)F)c2c1CCCC2)NC(Cc1cc(F)cc(F)c1)c1ncoc1-c1ccc(Cl)cc1 (stereo not shown) [Compound 36] | 16.3 |
| O=C(Cn1nc(C(F)(F)F)c2c1CCCC2)N[C@@H](Cc1ccccc1)c1nccn1-c1ccccc1 [Compound 1E] | 21.9 |
| Cc1ccccc1-c1scnc1C(Cc1cc(F)cc(F)c1)NC(=O)Cn1nc(C(F)(F)F)c2c1CCCC2 (stereo not shown) [Compound 14] | 11.3 |

Report CC50 at 5 days for every entry below.
1. O=C(Cn1nc(C(F)(F)F)c2c1CCCC2)N[C@@H](Cc1cc(F)cc(F)c1)c1nocc1-c1ccc(Cl)cc1 [Compound 27]
2. Cc1cc2ncn(CC(=O)NC(Cc3cc(F)cc(F)c3)c3cnc(-c4ccc(Cl)cc4)o3)c2cc1C (stereo not shown) [Compound 23]

Completion:
6.17
12

###

test system: HIV-IIIb; assay: Test A: Antiviral Assay in MT4 Cells; type: cell-based, HIV-1; settings: Human immunodeficiency virus 1, IIIB, MT4, 120 h, read-out: % inhibition at 6 μM
reportedMetric: inhibition at 6 µM (%)
Numbers only, in %.

A selection of reference data follows.
| compound | reportedMetric | readingUnit | experimentalValue |
| --- | --- | --- | --- |
| Cc1cc2ncn(CC(=O)NC(Cc3cc(F)cc(F)c3)c3cnc(-c4ccc(Cl)cc4)o3)c2cc1C (stereo not drawn) | inhibition at 6 µM | % | 0 |
| O=C(Cc1c[nH]c2ccc(F)cc12)N[C@@H](Cc1cc(F)cc(F)c1)c1nnc(-c2ccccc2)o1 [Compound 17B] | inhibition at 6 µM | % | 0 |

Lab note: next compound to report on.
Prompt: Return inhibition at 6 µM for the following compound: O=C(Cn1nc(C(F)(F)F)c2c1CCCC2)NC(Cc1cc(F)cc(F)c1)c1ncoc1-c1ccc(Cl)cc1 (stereo not drawn)
Completion: 0

###

Please respond with reported CC50 at 5 days for every item in the list.
experiment: Test B: Cytotoxicity assay; type: cell-based; conditions: human, uninfected MT-4 cells, same protocol as Test A, CellTiter-Glo

A selection of reference data follows.
| compound | reportedMetric | experimentalValue |
| --- | --- | --- |
| Cc1nnc(C(Cc2ccccc2)NC(=O)Cc2c[nH]c3ccc(O)cc23)n1-c1ccccc1 (stereo not shown) [Compound 10G] | CC50 at 5 days | > 53.2 µM |
| O=C(Cc1c[nH]c2ccc(F)cc12)N[C@@H](Cc1ccccc1)c1nc(-c2ccccc2)no1 [Compound 18B] | CC50 at 5 days | > 53 µM |
| O=C(Cc1c[nH]c2ccc(F)cc12)N[C@@H](Cc1cc(F)cc(F)c1)c1nnc(-c2ccccc2)o1 [Compound 17B] | CC50 at 5 days | > 53 µM |

Prompt: Return CC50 at 5 days for the following compound: O=C(Cc1c[nH]c2ccc(O)cc12)NC(Cc1ccccc1)c1cnnn1-c1ccccc1 (stereo not shown)
Completion: > 53 µM
